System: P-glycoprotein (MDR1)
Assay: P-glycoprotein substrate potential / permeability in MDR1-transfected MDCK cells
Format: in vitro ADME
Conditions: dog, pH 7.4; MDCK-MDR1, 1 μM, apical to basolateral, two hours
Protocol: MDCK-MDR1 cells were seeded into 96-well HTS Transwell plate at the density of 5.45×10^5/cm^2. Cells were cultivated for 4-7 days before the transport assay. Transepithelial electrical resistance (TEER) of MDCK-MDR1 monolayer was measured before the experiment with the Millicell Epithelial Volt-Ohm measuring system. Transport assay: Cell monolayers were pre-incubated in transport medium (TM, HBSS with 25 mM HEPES, pH 7.4) for 30 min at 37° C. […] Samples were analyzed by UPLC-MS/MS. […]
Measurement kind: Papp A→B at 2 h, 1 µM (×10⁻⁶ cm/s)

[
  {
    "Molecule": "CC(C)(O)c1cc(Nc2cc(Oc3cn(C4CC4)nc3C3CCOCC3)ccn2)ccn1 [Compound A, reference compound]",
    "Papp A→B at 2 h, 1 µM / ×10⁻⁶ cm/s": 2.75
  }
]

(I) CC(C)(O)c1cc(Nc2cc(Oc3cc(C(F)(F)F)nn3-c3ccccn3)ccn2)ccn1
(II) Cc1ccc(Oc2ccnc(Nc3ccnc(C(C)(C)O)c3)c2)c(C)n1
(III) CC(C)(O)c1ccc(Nc2cc(Oc3cc(C(F)(F)F)nn3C3CCOCC3)ccn2)cn1
# rank_down: sort by Papp A→B at 2 h, 1 µM, max first Write the labels, ordered according to the request.
II, III, I
(II: 12.4 ×10⁻⁶ cm/s, III: 7.38 ×10⁻⁶ cm/s, I: 3.63 ×10⁻⁶ cm/s)

----------
Experiment: Human hepatocyte clearance study
Assay type: in vitro ADME
Conditions: human, pooled cryopreserved human hepatocytes (suspension); read-out: Human In vitro Clint
Measurement kind: hepatocyte CLint at 1 µM (µL/min/1e6 cells)

[
  {
    "Smiles entry": "NS(=O)(=O)c1ccc(Nc2cc(Oc3cc(C(F)(F)F)nn3C3CCOCC3)ccn2)cc1",
    "Measurement kind": "hepatocyte CLint at 1 µM",
    "Unit text": "µL/min/1e6 cells",
    "Value measured": 7.7
  },
  {
    "Smiles entry": "Cc1ccc(Oc2ccnc(Nc3ccnc(C(C)(C)O)c3)c2)c(C)n1",
    "Measurement kind": "hepatocyte CLint at 1 µM",
    "Unit text": "µL/min/1e6 cells",
    "Value measured": 2.4
  }
]

(a) Cn1nc(C(F)(F)F)cc1Oc1ccnc(Nc2ccnc(C(C)(C)O)c2)c1
(b) NS(=O)(=O)c1ccc(Nc2cc(Oc3cc(C4CC4)nn3C3CC3)ccn2)cc1
Please indicate which entry, a or b , has the lower recorded hepatocyte CLint at 1 µM value. Please identify the chosen entry by its label.
a
(a: 2.2 µL/min/1e6 cells, b: 7.5 µL/min/1e6 cells)

----------
Assay: Human hepatocyte clearance study
Type: in vitro ADME
Details: human, pooled cryopreserved human hepatocytes (suspension); read-out: Human In vitro Clint
Measurement kind: hepatocyte CLint at 1 µM (µL/min/1e6 cells)

[
  {
    "Compound": "CC(C)(O)c1cc(Nc2cc(Oc3cccnc3C3CCOCC3)ccn2)ccn1",
    "hepatocyte CLint at 1 µM (µL/min/1e6 cells)": 6.8
  }
]

(a) CC(C)(O)c1ccc(Nc2cc(Oc3cc(C(F)(F)F)nn3C3CCOCC3)ccn2)cn1
(b) CC(C)(O)c1cc(Nc2cc(Oc3cn(C4CC4)nc3C3CCOCC3)ccn2)ccn1 [Compound A, reference compound]
Name the one with the greater hepatocyte CLint at 1 µM value, either a or b as given. Please identify the chosen entry by its label.
b
(b: 12.5 µL/min/1e6 cells, a: 5.7 µL/min/1e6 cells)

All values here come from patent US11691981B2.
